Target: recombinant human mGluR4a receptors (Homo sapiens)
Sequence (Q14833 33-912): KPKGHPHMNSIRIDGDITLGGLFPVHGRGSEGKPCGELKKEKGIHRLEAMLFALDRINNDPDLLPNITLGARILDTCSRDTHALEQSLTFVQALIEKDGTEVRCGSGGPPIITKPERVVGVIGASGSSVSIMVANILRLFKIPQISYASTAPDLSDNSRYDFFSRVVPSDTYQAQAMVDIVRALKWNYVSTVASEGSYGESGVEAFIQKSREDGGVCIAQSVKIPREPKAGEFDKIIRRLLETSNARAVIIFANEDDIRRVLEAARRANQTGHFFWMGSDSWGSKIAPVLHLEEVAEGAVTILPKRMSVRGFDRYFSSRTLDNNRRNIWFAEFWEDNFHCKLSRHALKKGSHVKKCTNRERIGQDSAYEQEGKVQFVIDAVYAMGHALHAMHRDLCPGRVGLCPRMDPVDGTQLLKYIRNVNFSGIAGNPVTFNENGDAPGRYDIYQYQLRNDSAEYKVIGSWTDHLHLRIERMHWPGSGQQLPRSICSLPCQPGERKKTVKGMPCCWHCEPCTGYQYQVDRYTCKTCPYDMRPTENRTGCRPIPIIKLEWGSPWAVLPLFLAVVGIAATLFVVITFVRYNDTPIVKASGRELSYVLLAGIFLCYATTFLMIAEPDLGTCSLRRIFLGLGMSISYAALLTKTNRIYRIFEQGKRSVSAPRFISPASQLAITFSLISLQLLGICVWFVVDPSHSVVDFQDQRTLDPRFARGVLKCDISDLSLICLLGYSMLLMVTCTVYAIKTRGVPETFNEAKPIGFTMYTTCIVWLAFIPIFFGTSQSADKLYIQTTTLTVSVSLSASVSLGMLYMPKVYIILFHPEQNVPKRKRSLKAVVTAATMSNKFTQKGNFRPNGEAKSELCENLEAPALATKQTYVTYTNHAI
Assay: Fluorescent cell based Ca2+ mobilization assay (FLIPR) on HEK-293 cells expressing human mGluR4
Details: positive allosteric modulation in presence of EC25 glutamate; HEK-293 hmGluR4; mean of at least three independent experiments in duplicate; read-out: Ca^2+ Flux (mean EC50)
measured-attribute: EC50

EC50 of "Cc1ccnc(Nc2nc3c(s2)CC(F)(F)Cc2n[nH]cc2-3)n1" on recombinant human mGluR4a receptors (Homo sapiens)?
< 100 nM

Moving on to the next compound: CCC1OCc2sc(Nc3nccc(OC)n3)nc2-c2cn[nH]c21 (stereo not shown)
< 100 nM

Moving on to the next compound: Cc1ccnc(Nc2nc3c(s2)COC(C(F)(F)F)c2n[nH]cc2-3)n1 (stereo not shown)
< 100 nM

Moving on to the next compound: CCCC1Cc2sc(Nc3nccc(C)n3)nc2-c2cn[nH]c21 (stereo not shown)
100 to 1000 nM

Moving on to the next compound: COc1ccnc(Nc2nc3c(s2)COC(C)c2[nH]ncc2-3)n1 (stereo not shown)
< 100 nM

Moving on to the next compound: "Cc1ccnc(Nc2nc3c(s2)C(C)(C)OCc2n[nH]cc2-3)n1"
100 to 1000 nM

Moving on to the next compound: "Cc1nc(Nc2nc3c(s2)C(=O)CCc2n[nH]cc2-3)ncc1F"
1000 to 10000 nM

Moving on to the next compound: CCC1OCc2sc(Nc3ncc(F)cn3)nc2-c2c[nH]nc21 (stereo not shown)
< 100 nM

Moving on to the next compound: "Cc1ccnc(Nc2nc3c(s2)CCOc2n[nH]cc2-3)n1"
< 100 nM

Moving on to the next compound: Cc1ccnc(Nc2nc3c(s2)C(C)(C)OC(C)c2n[nH]cc2-3)n1 (stereo not shown)
1000 to 10000 nM

Moving on to the next compound: Cc1ccnc(Nc2nc3c(s2)CC(C)Cc2n[nH]cc2-3)n1 (stereo not shown)
100 to 1000 nM

Moving on to the next compound: COC1CCc2sc(Nc3nccc(C)n3)nc2-c2cn[nH]c21 (stereo not shown)
< 100 nM

Moving on to the next compound: COC1Cc2n[nH]cc2-c2nc(Nc3nccc(C)n3)sc2C1 (stereo not shown)
100 to 1000 nM

Moving on to the next compound: CC(C)C1OCc2sc(Nc3cccc(F)n3)nc2-c2cn[nH]c21 (stereo not shown)
100 to 1000 nM

Moving on to the next compound: CC1OCc2sc(Nc3cccc(F)n3)nc2-c2c[nH]nc21 (stereo not shown)
< 100 nM

Moving on to the next compound: Cc1ccnc(Nc2nc3c(s2)COC(C(C)C)c2n[nH]cc2-3)n1 (stereo not shown)
< 100 nM

====

Target: recombinant human mGluR4a receptors (Homo sapiens)
Experiment: Fluorescent cell based Ca2+ mobilization assay (FLIPR) on HEK-293 cells expressing human mGluR4
Conditions: positive allosteric modulation in presence of EC25 glutamate; HEK-293 hmGluR4; mean of at least three independent experiments in duplicate; read-out: Ca^2+ Flux (mean EC50)
We begin with a simple list: items and their reported EC50.

[
  {
    "molecule": "CC(C)C1OCc2sc(Nc3ncc(F)cn3)nc2-c2cn[nH]c21 (stereo not drawn)",
    "obs-value": "< 100 nM"
  }
]

Which value of EC50 has been reported for CCC1OCc2sc(Nc3ncc(F)c(C)n3)nc2-c2cn[nH]c21 (stereo not drawn) in the records?
< 100 nM

Moving on to the next molecule: Cc1ccnc(Nc2nc3c(s2)CCC(C(F)(F)F)c2[nH]ncc2-3)n1 (stereo not drawn)
100 to 1000 nM
